We begin with a simple list: items and their reported Drug metabolism.
Test system: Plasma
testSummary: Prodrug conversion in mouse plasma assessed as drug concentration at 3 hrs
Type: ADME, cell-free
Only the number, expressed in %, is required.

# count of solved cases: 3
>>> measuredresult("NC1(C(=O)Oc2ccc(-c3ccc(/C=C/C(=O)O)cc3)cc2C23CC4CC(CC(C4)C2)C3)CC1.O=C(O)C(F)(F)F")
96.66
>>> measuredresult("Cl.O=C(O)/C=C/c1ccc(-c2ccc(OC(=O)N3CCC(N4CCCCC4)CC3)c(C34CC5CC(CC(C5)C3)C4)c2)cc1")
100
>>> measuredresult("O=C(O)/C=C/c1ccc(-c2ccc(OC(=O)C3CC3)c(C34CC5CC(CC(C5)C3)C4)c2)cc1")
100

Note: attention shifts to another entry.
Exam item: What value of measured Drug metabolism is listed for CNCCNC(=O)Oc1ccc(-c2ccc(/C=C/C(=O)O)cc2)cc1C12CC3CC(CC(C3)C1)C2.Cl ?
Marked response: 99.94

----------
testSummary: Chemical stability in aqueous buffer containing 5% DMSO and 5% tween 80 at pH 6.8 assessed as compound recovery in anoxic conditions after 24 hrs by UPLC analysis
Assay type: physicochemical
studyConditions: read-out: Stability
We begin with a simple list: items and their reported remaining at 24 h.

# count of solved cases: 4
>>> measuredresult("CNCCNC(=O)Oc1ccc(-c2ccc(/C=C/C(=O)O)cc2)cc1C12CC3CC(CC(C3)C1)C2.Cl")
"69%"
>>> measuredresult("CN1CCN(CCCC(=O)Oc2ccc(-c3ccc(/C=C/C(=O)O)cc3)cc2C23CC4CC(CC(C4)C2)C3)CC1")
"85%"
>>> measuredresult("CC(C)NC(=O)Oc1ccc(-c2ccc(/C=C/C(=O)O)cc2)cc1C12CC3CC(CC(C3)C1)C2")
"> 99%"
>>> measuredresult("O=C(O)/C=C/c1ccc(-c2ccc(OC(=O)NC3CCN(C(=O)OCc4ccccc4)CC3)c(C34CC5CC(CC(C5)C3)C4)c2)cc1")
"> 99%"

Exam item: What value of measured remaining at 24 h is listed for O=C(O)/C=C/c1ccc(-c2ccc(OCCN3CCOCC3)c(C34CC5CC(CC(C5)C3)C4)c2)cc1 ?
Marked response: > 99%

Exam item: What value of measured remaining at 24 h is listed for CC(C)C[C@H](NC(=O)Oc1ccc(-c2ccc(/C=C/C(=O)O)cc2)cc1C12CC3CC(CC(C3)C1)C2)C(=O)NCC(=O)O ?
Marked response: > 99%

Exam item: What value of measured remaining at 24 h is listed for O=C(O)/C=C/c1ccc(-c2ccc(OCN3C(=O)c4ccccc4C3=O)c(C34CC5CC(CC(C5)C3)C4)c2)cc1 ?
Marked response: > 99%

Exam item: What value of measured remaining at 24 h is listed for O=C(O)/C=C/c1ccc(-c2ccc(OC(=O)C3CC3)c(C34CC5CC(CC(C5)C3)C4)c2)cc1 ?
Marked response: > 99%

----------
We begin with a simple list: items and their reported Drug metabolism.
System: Plasma
testSummary: Prodrug conversion in mouse plasma assessed as drug concentration at 6 hrs in presence of esterase inhibitor PMSF
Format: ADME, cell-free
Only the number, expressed in %, is required.

Exam item: What value of measured Drug metabolism is listed for CNCCNC(=O)Oc1ccc(-c2ccc(/C=C/C(=O)O)cc2)cc1C12CC3CC(CC(C3)C1)C2.Cl ?
Marked response: 17.55

Exam item: What value of measured Drug metabolism is listed for Cl.O=C(O)/C=C/c1ccc(-c2ccc(OC(=O)N3CCC(N4CCCCC4)CC3)c(C34CC5CC(CC(C5)C3)C4)c2)cc1 ?
Marked response: 4.13

Exam item: What value of measured Drug metabolism is listed for O=C(O)/C=C/c1ccc(-c2ccc(OC(=O)C3CC3)c(C34CC5CC(CC(C5)C3)C4)c2)cc1 ?
Marked response: 99.76

Exam item: What value of measured Drug metabolism is listed for NC1(C(=O)Oc2ccc(-c3ccc(/C=C/C(=O)O)cc3)cc2C23CC4CC(CC(C4)C2)C3)CC1.O=C(O)C(F)(F)F ?
Marked response: 97.77
